# reported log10(TGI); entries follow
Test system: A498 renal
test-protocol: NCI tumour cell line growth inhibition, 48 h
property-measured: log10(TGI) (log10 of the value in µM)

1. CN(C)CCN1C(=O)c2ccc3c4c(ccc(c24)C1=O)C(=O)N(CCN=C=S)C3=O = -0.68
2. COc1ccc(/C=C/C(=O)C(CC2CCC2)C(=O)/C=C/c2ccc(OC)c(OC)c2)cc1OC = 0.52
3. Cc1cc(NCc2ccccc2)c2ccccc2[n+]1CCCCCCCCCC[n+]1c(C)cc(NCc2ccccc2)c2ccccc21 = 1.16
4. N#Cc1c(Cl)cc(Cl)n2c1nc1ccccc12 = 1.67
5. Cc1ccc(O)c(-c2cscn2)c1 = 1.85

* * *

System: A549 NSCLC
test-protocol: NCI tumour cell line growth inhibition, 48 h; in the data active means GI50 below about 0.43 µM; inactive means the rest
Classes used: active, inactive

1. Nc1ccn(C2CCC(CO)O2)c(=O)n1 (configuration not stated) = inactive
2. O=c1cc(NC2CCN(CCCc3ccccc3)CC2)c2cc(Cl)ccc2o1 = inactive
3. COc1cc(/C=C/c2cc(/C=C/c3ccc(O)c(OC)c3)n(C(=O)Nc3ccc(C)cc3C)n2)ccc1O = inactive
4. CC(=O)C(=CN1CCN(C(=O)c2ccco2)C1=S)C(C)=O = inactive
5. O=C1CSC(c2ccc(Cl)cc2Cl)N1c1ccc(F)cc1 (configuration not stated) = inactive
6. COc1ccc(C(=O)COc2ccc(/C=C3\COc4ccc(OC)cc4C3=O)cc2)cc1 = inactive
7. CCSc1nc(SCC)c2cn[nH]c2n1 = inactive
8. C[C@H](O)C(=O)N1CCC(CCn2c(Sc3cc4c(cc3Br)OCO4)nc3c(N)ncnc32)CC1 = inactive
9. O=C1Nc2ccc(F)cc2/C1=C/c1ccc[nH]1 = inactive
10. COc1ccc(CCN2COc3c([C@@H](C)CCC=C(C)C)ccc(C)c3C2)cc1OC = inactive
11. Cc1ncc(CCCN(C)C)cc1Nc1ncc2c(n1)-c1ccc(C(F)(F)F)cc1NC(=S)C2 = active
12. COc1ccc(-c2nn(-c3ccc(NC(=O)Nc4cc(C(F)(F)F)cc(C(F)(F)F)c4)cc3)cc2-c2ccncc2)cc1Cl = inactive
13. O=c1c2ccccc2c(=O)c2c1[nH]c1c(-c3ccccc3)c(-c3ccccc3)c(=O)c12 = inactive
14. CN(C)CCN1C(=O)c2ccc3c4c(ccc(c24)C1=O)C(=O)N(CCN=C=S)C3=O = active
15. O=S(=O)(Nc1cc(Sc2cccc3cccnc23)c(O)c2ccccc12)c1ccccc1 = inactive
16. C#Cc1c(I)n(C2OC(CO[Si](C)(C)C(C)(C)C)C3OC(C)(C)OC32)c(=O)[nH]c1=O (configuration not stated) = inactive
17. CN(C)C(=O)[C@H](O)[C@H](Cc1ccccc1)NC(=O)c1cc2cc(Cl)ccc2[nH]1 = inactive

* * *

In this section we review reported TGI values for a set of compounds.
Tested on: NCI-H522 lung
test-protocol: NCI tumour cell line growth inhibition, 48 h
property-measured: TGI

1) C[N+]12CCCCC1C(CN1C(=O)Cc3c4ccccc4c(c4ccccc34)CC1=O)CCC2 (configuration not stated) = > 100 µM
2) CCNC(=O)Nc1cccc(NC(=O)NCC)n1 = > 100 µM
3) CCOC(=O)NC(Nc1ccc([N+](=O)[O-])cc1)(C(F)(F)F)C(F)(F)F = > 100 µM
4) Cc1ccc(S(=O)(=O)C(C#N)c2nc3ccccc3nc2-n2ccnc2)cc1 (configuration not stated) = > 100 µM
5) N#Cc1cccnc1Cl = > 100 µM
6) CCOC(=O)c1ccc(C)c(N=NN(C)C)c1 = > 100 µM
7) S=C1OC2CCCC[C@H]2O1 (some centres not stated) = > 100 µM
8) CN(C)CCN1C(=O)c2ccc3c4c(ccc(c24)C1=O)C(=O)N(CCN=C=S)C3=O = 0.145 µM
9) CC(C)=CCNc1ncnc2c1ncn2CCC#N = > 100 µM
10) O=C(O)[C@H](NS(=O)(=O)c1ccc([N+](=O)[O-])cc1)c1ccccc1 = > 100 µM
11) Nc1ccn(C2OC(CO)C(O)C2O)c(=O)c1 (configuration not stated) = > 625 µM
12) CSc1ncnc2c1ncn2CCC#N = > 100 µM

* * *

Tested on: LOX IMVI melanoma
test-protocol: NCI tumour cell line growth inhibition, 48 h; in the data active = GI50 below about 0.43 µM; inactive = the rest
Labels: active, inactive

1) COc1cc(C(=O)c2cc(C)c3[nH]c4ccc(C)cc4c3c2C)cc(OC)c1OC = active
2) O=c1c2ccccc2c(=O)c2c1[nH]c1c(-c3ccccc3)c(-c3ccccc3)c(=O)c12 = inactive
3) CCn1c(SCc2ccc(C)cc2)nnc1-c1nn(-c2ccc(Cl)cc2Cl)c(-c2ccc(Cl)cc2)c1C = inactive
4) C[C@]12CC[C@@H]3c4cc(OCC(F)(F)F)c(O)cc4/C(=N/O)C[C@H]3[C@@H]1CC[C@@H]2O = active
5) CC(=O)C(=CN1CCN(C(=O)c2ccco2)C1=S)C(C)=O = inactive
6) CCSc1nc(SCC)c2cn[nH]c2n1 = inactive
7) COc1cc2[nH]c(C(=O)c3cc(OC)c(OC)c(OC)c3)c(N)c2cc1C#CC1CC1 = inactive
8) Nc1ccn(C2CCC(CO)O2)c(=O)n1 (stereo not given) = inactive
9) COc1cccc(C#Cc2ccccc2C#CCCCCO)c1 = inactive
10) C1C[OH+]CC[OH+]CC[OH+]CC[OH+]CC[OH+]1.[Cl-].[V] = inactive
11) Cc1ccc2[nH]c(O)c(N=Nc3ccc(S(N)(=O)=O)cc3)c2c1 = inactive
12) CC(=O)N[C@H]1CSSC[C@@H](C(N)=O)NC(=O)[C@H](C(C)C)NC(=O)[C@H](C)NC(=O)[C@H](Cc2cnc[nH]2)NC1=O = inactive
13) O=S(=O)(Nc1cc(Sc2cccc3cccnc23)c(O)c2ccccc12)c1ccccc1 = inactive
14) COc1cccc2c(=O)c3c(sc12)c(N1CCNCC1)nc1ccccc13 = inactive
15) COc1ccc(C(=O)COc2ccc(/C=C3\COc4ccc(OC)cc4C3=O)cc2)cc1 = inactive

* * *

Test system: NCI-H23 lung
test-protocol: NCI tumour cell line growth inhibition, 48 h
TGI reference
property-measured: TGI

1) CN(C)c1ccc(C2SCC(=O)N2c2ccc(Oc3ccc(Cl)cc3)c(Cl)c2)cc1 (stereo not given) = 45.4 µM
2) C#C[C@]1(O)CC[C@H]2[C@@H]3CCC4=C/C(=N/OC(=O)c5cccc6c(=O)c7ccccc7[nH]c56)CC[C@@H]4[C@H]3CC[C@@]21C = > 100 µM
3) N#Cc1cccnc1Cl = > 100 µM
4) C/C(CC(=O)NCCc1ccccc1)=N\NC(=O)C[n+]1ccccc1 = > 100 µM
5) C[N+]12CCCCC1C(CN1C(=O)Cc3c4ccccc4c(c4ccccc34)CC1=O)CCC2 (stereo not given) = > 100 µM

* * *

In this section, each of the compounds is paired with its reported GI50.
Tested on: UACC-257 melanoma
test-protocol: NCI tumour cell line growth inhibition, 48 h
property-measured: GI50

1) COc1ccc(/C=C/C(=O)C(CC2CCC2)C(=O)/C=C/c2ccc(OC)c(OC)c2)cc1OC = 1.86 µM
2) O=c1cc(NC2CCN(CCCc3ccccc3)CC2)c2cc(Cl)ccc2o1 = 15.4 µM
3) O=C1Nc2ccc(F)cc2/C1=C/c1ccc[nH]1 = > 25 µM
4) C1CCC([PH+](C2CCCCC2)C2CCCCC2[PH+](C2CCCCC2)C2CCCCC2)CC1.O=C(C1[CH-]CCCC1)C1CCCC[N-]1.[Au] (centres undefined) = 0.337 µM
5) CC(=O)C(=CN1CCN(C(=O)c2ccco2)C1=S)C(C)=O = 2.51 µM
6) COc1ccc(-c2nn(-c3ccc(NC(=O)Nc4cc(C(F)(F)F)cc(C(F)(F)F)c4)cc3)cc2-c2ccncc2)cc1Cl = 3.5 µM
7) COc1cccc2c(=O)c3c(sc12)c(N1CCNCC1)nc1ccccc13 = 2.09 µM
8) Nc1ccn(C2CCC(CO)O2)c(=O)n1 (centres undefined) = > 1000 µM
9) CC1=C[C@H]2c3c(c(O)c(O)c4oc(-c5ccccc5)cc(=O)c34)[C@H](c3cc(O)c(O)c4oc(-c5ccccc5)cc(=O)c34)[C@H]2C(C)(C)C1 = 1.72 µM

* * *

Known GI50 of a selection of compounds
Test system: HCT-116 colon
test-protocol: NCI tumour cell line growth inhibition, 48 h
property-measured: GI50

1. Br[C](Br)(Br)[Hg][c]1ccccc1 = 19.7 µM
2. Nc1nc(F)nc2c1ncn2C1OC(CO)C(O)C1O (stereo unspecified) = 19.4 µM
3. COc1ccc(-c2nn(-c3ccc(NC(=O)Nc4cc(C(F)(F)F)cc(C(F)(F)F)c4)cc3)cc2-c2ccncc2)cc1Cl = 1.53 µM
4. CC(CO)(CO)NCCCCn1ccc2c1C(=O)c1c(c(O)c3ccccc3c1O)C2=O = 1.58 µM
5. CC1=C(C(=O)Nc2ccc(F)c(Cl)c2)C(c2cccc(O)c2)NC(=O)N1 (stereo unspecified) = 70.7 µM
6. Cn1c(=O)c(Cc2ccccc2F)cc2cnc(NC3CCOCC3)nc21 = > 25 µM
